Tested on: Nakaseomyces glabratus
TEST: Antifungal activity against Candida glabrata ATCC2001 assessed as reduction in fungal growth measured after 24 hrs by CLSI protocol based method
Assay type: functional
RESULT TYPE: MIC (µg/mL)
Provide the reading as a plain figure in µg/mL.

{"STRUCTURE STRING": "CCCCCCCCCCC[C@@H](O[C@H]1OC[C@@H](O)[C@H](O)[C@H]1O)[C@H](O)[C@H](O)C[C@@H]1CC(=O)N[C@@H](CO)C(=O)N[C@H]([C@H](O)c2ccc(O)cc2)C(=O)N[C@H](CCN)C(=O)NCC(=O)N[C@@H](CC(=O)NCCC)C(=O)N[C@H](CO)C(=O)N[C@@H](CC(N)=O)C(=O)N1", "MIC [µg/mL]": 0.5}
{"STRUCTURE STRING": "CCCCCCCCCCC[C@@H](O[C@H]1OC[C@@H](O)[C@H](O)[C@H]1O)[C@H](O)[C@H](O)C[C@@H]1CC(=O)N[C@@H](CO)C(=O)N[C@H]([C@H](O)c2ccc(O)cc2)C(=O)N[C@H](CCN)C(=O)NCC(=O)N[C@@H](CC(N)=O)C(=O)N[C@H](CO)C(=O)N[C@@H](CC(N)=O)C(=O)N1", "MIC [µg/mL]": 0.25}

stdin: Can you look up MIC on Nakaseomyces glabratus for CCCCCCCCCCC[C@@H](O[C@H]1OC[C@@H](O)[C@H](O)[C@H]1O)[C@H](O)[C@H](O)C[C@@H]1CC(=O)N[C@@H](CO)C(=O)N[C@H]([C@H](O)c2ccc(O)cc2)C(=O)N[C@H](CCN)C(=O)NCC(=O)N[C@@H](CC(=O)N(C)C)C(=O)N[C@H](CO)C(=O)N[C@@H]([C@H](O)C(N)=O)C(=O)N1 ?
stdout: 0.5

====

Measured MIC accompanies every entry in the list below.
Test system: [Candida] auris
TEST: Antifungal activity against Candida auris MYA-500 assessed as reduction in fungal growth measured after 24 hrs by CLSI protocol based method
Format: functional
TEST CONTEXT: Candidozyma auris
Output spec: scalar in µg/mL, unitless text.

// worked examples, MIC included
{"STRUCTURE STRING": "CCCCCCCCCCC[C@@H](O[C@H]1OC[C@@H](O)[C@H](O)[C@H]1O)[C@H](O)[C@H](O)C[C@@H]1CC(=O)N[C@@H](CO)C(=O)N[C@H]([C@H](O)c2ccc(O)cc2)C(=O)N[C@H](CCN)C(=O)NCC(=O)N[C@@H](CC(=O)NCC)C(=O)N[C@H](CO)C(=O)N[C@@H]([C@H](O)C(N)=O)C(=O)N1", "TARGET UNDER TEST": "[Candida] auris", "MIC, µg/mL": 1}
{"STRUCTURE STRING": "CCCCCCCCCCC[C@@H](O[C@H]1OC[C@@H](O)[C@H](O)[C@H]1O)[C@H](O)[C@H](O)C[C@@H]1CC(=O)N[C@@H](CO)C(=O)N[C@H]([C@H](O)c2ccc(O)cc2)C(=O)N[C@H](CCN)C(=O)NCC(=O)N[C@@H](CC(=O)NCCC)C(=O)N[C@H](CO)C(=O)N[C@@H](CC(N)=O)C(=O)N1", "TARGET UNDER TEST": "[Candida] auris", "MIC, µg/mL": 1}
{"STRUCTURE STRING": "CCCCCCCCCCC[C@@H](O[C@H]1OC[C@@H](O)[C@H](O)[C@H]1O)[C@H](O)[C@H](O)C[C@@H]1CC(=O)N[C@@H](CO)C(=O)N[C@H]([C@H](O)c2ccc(O)cc2)C(=O)N[C@H](CCN)C(=O)NCC(=O)N[C@@H](CC(=O)O)C(=O)N[C@H](CO)C(=O)N[C@@H](CC(N)=O)C(=O)N1", "TARGET UNDER TEST": "[Candida] auris", "MIC, µg/mL": 1}
{"STRUCTURE STRING": "CCCCCCCCCCC[C@@H](O[C@H]1OC[C@@H](O)[C@H](O)[C@H]1O)[C@H](O)[C@H](O)C[C@@H]1CC(=O)N[C@@H](CO)C(=O)N[C@H]([C@H](O)c2ccc(O)cc2)C(=O)N[C@H](CCN)C(=O)NCC(=O)N[C@@H](CC(N)=O)C(=O)N[C@H](CO)C(=O)N[C@@H](CC(N)=O)C(=O)N1", "TARGET UNDER TEST": "[Candida] auris", "MIC, µg/mL": 0.25}
{"STRUCTURE STRING": "CCCCCCCCCCC[C@@H](O[C@H]1OC[C@@H](O)[C@H](O)[C@H]1O)[C@H](O)[C@H](O)C[C@@H]1CC(=O)N[C@@H](CO)C(=O)N[C@H]([C@H](O)c2ccc(O)cc2)C(=O)N[C@H](CCN)C(=O)NCC(=O)N[C@@H](CC(=O)NC)C(=O)N[C@H](CO)C(=O)N[C@@H](CC(N)=O)C(=O)N1", "TARGET UNDER TEST": "[Candida] auris", "MIC, µg/mL": 0.5}

Okay, next one:
stdin: Could you tell me which MIC is on file for CCCCCCCCCCC[C@@H](O[C@H]1OC[C@@H](O)[C@H](O)[C@H]1O)[C@H](O)[C@H](O)C[C@@H]1CC(=O)N[C@@H](CO)C(=O)N[C@H]([C@H](O)c2ccc(O)cc2)C(=O)N[C@H](CCN)C(=O)NCC(=O)N[C@@H](CC(=O)N(C)C)C(=O)N[C@H](CO)C(=O)N[C@@H]([C@H](O)C(N)=O)C(=O)N1 ?
stdout: 0.5

====

Test system: [Candida] auris
TEST: Antifungal activity against Candida auris MYA-500 assessed as reduction in fungal growth measured after 24 hrs by CLSI protocol based method
Type: functional
TEST CONTEXT: Candidozyma auris
RESULT TYPE: MIC (µg/mL)
Report as a plain number; the unit µg/mL is understood.

stdin: Tell me the measured MIC of CCCCCCCCCCC[C@@H](O[C@H]1OC[C@@H](O)[C@H](O)[C@H]1O)[C@H](O)[C@H](O)C[C@@H]1CC(=O)N[C@@H](CO)C(=O)N[C@H]([C@H](O)c2ccc(O)cc2)C(=O)N[C@H](CCN)C(=O)NCC(=O)N[C@@H](CC(N)=O)C(=O)N[C@H](CO)C(=O)N[C@@H]([C@H](O)C(N)=O)C(=O)N1 , please.
stdout: 0.25

stdin: Entry under review: CCCCCCCCCCC[C@@H](O[C@H]1OC[C@@H](O)[C@H](O)[C@H]1O)[C@H](O)[C@H](O)C[C@@H]1CC(=O)N[C@@H](CO)C(=O)N[C@H]([C@H](O)c2ccc(O)cc2)C(=O)N[C@H](CCN)C(=O)NCC(=O)N[C@@H](CC(=O)NC)C(=O)N[C@H](CO)C(=O)N[C@@H]([C@H](O)C(N)=O)C(=O)N1 . Reported MIC?
stdout: 0.5

stdin: What does the data say about its MIC? Entry: CCCCCCCCCCC[C@@H](O[C@H]1OC[C@@H](O)[C@H](O)[C@H]1O)[C@H](O)[C@H](O)C[C@@H]1CC(=O)N[C@@H](CO)C(=O)N[C@H]([C@H](O)c2ccc(O)cc2)C(=O)N[C@H](CCN)C(=O)NCC(=O)N[C@@H](CC(=O)O)C(=O)N[C@H](CO)C(=O)N[C@@H]([C@H](O)C(N)=O)C(=O)N1
stdout: 1

====

System: [Candida] auris
TEST: Antifungal activity against Candida auris MYA-500 assessed as reduction in fungal growth measured after 24 hrs by CLSI protocol based method
Assay type: functional
TEST CONTEXT: Candidozyma auris
RESULT TYPE: MIC (µg/mL)
Could you give me the number in µg/mL? Just the number is fine.

stdin: Given the entry CCCCCCCCCCC[C@@H](O[C@H]1OC[C@@H](O)[C@H](O)[C@H]1O)[C@H](O)[C@H](O)C[C@@H]1CC(=O)N[C@@H](CO)C(=O)N[C@H]([C@H](O)c2ccc(O)cc2)C(=O)N[C@H](CCN)C(=O)NCC(=O)N[C@@H](CC(=O)NCC)C(=O)N[C@H](CO)C(=O)N[C@@H](CC(N)=O)C(=O)N1 , report its measured MIC.
stdout: 1

stdin: Fill in: MIC of CCCCCCCCCCC[C@@H](O[C@H]1OC[C@@H](O)[C@H](O)[C@H]1O)[C@H](O)[C@H](O)C[C@@H]1CC(=O)N[C@@H](CO)C(=O)N[C@H]([C@H](O)c2ccc(O)cc2)C(=O)N[C@H](CCN)C(=O)NCC(=O)N[C@@H](CC(=O)N(C)C)C(=O)N[C@H](CO)C(=O)N[C@@H](CC(N)=O)C(=O)N1 is ___
stdout: 0.5

stdin: Entry CCCCCCCCCCC[C@@H](O[C@H]1OC[C@@H](O)[C@H](O)[C@H]1O)[C@H](O)[C@H](O)C[C@@H]1CC(=O)N[C@@H](CO)C(=O)N[C@H]([C@H](O)c2ccc(O)cc2)C(=O)N[C@H](CCN)C(=O)NCC(=O)N[C@@H](CC(=O)NCCC)C(=O)N[C@H](CO)C(=O)N[C@@H]([C@H](O)C(N)=O)C(=O)N1 : reported MIC = ?
stdout: 1

All figures here come from ChEMBL document CHEMBL5357035.
